meta.source: the supplement of paper PMC6555819

Tested on: PPARg:RXRa IVT, anti-PPARg (NR concentration 270 nM, RXRa partner concentration 90 nM)
EXPERIMENTAL DETAILS: PBM binding z-score (relative to random genomic background probes); higher = stronger binding; sequences stand for … in GC…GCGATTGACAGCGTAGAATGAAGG
Output schema: class label derived from PBM binding z-score. Mapping: bottom range = under 1, center range = from 1 up to 4, top range = 4 and over

Record excerpt, results attached:
PRIMARY SEQUENCE	GROUP LABEL
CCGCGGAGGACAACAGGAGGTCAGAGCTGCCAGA	bottom range
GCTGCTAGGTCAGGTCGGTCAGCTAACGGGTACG	center range

Prompt line: Lab note: which band did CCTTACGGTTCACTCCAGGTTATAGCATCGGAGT land in?
Response line: bottom range

Prompt line: Which bin should I file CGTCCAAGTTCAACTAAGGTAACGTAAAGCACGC under?
Response line: center range

Prompt line: Category of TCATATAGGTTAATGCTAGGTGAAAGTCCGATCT , please.
Response line: top range
